experiment: from Savola, J.; Ruskoaho, H.; Salonen, J.; Puurunen, J.; Karjalainen, A.; Kurkela, K.; Karki, N. (1988). Cardiovascular and sedative alpha-adrenoceptor effects of detomidine-like arylalkylimidazoles and …; conditions: pH 7.4
Give measured logD for each item. Keep answers brief.

Query: Read off the recorded logD for `Cc1ccc(Cc2c[nH]cn2)c(C)c1`
Result: 2.52

Query: Read off the recorded logD for `Cc1cccc(C)c1Cc1cnc[nH]1`
Result: 2.54

Query: Read off the recorded logD for `Cc1cccc(C)c1CCCc1c[nH]cn1`
Result: 2.87

Query: Read off the recorded logD for `Cc1cccc(C)c1-c1c[nH]cn1`
Result: 2.38

Query: Read off the recorded logD for `Cc1cccc(C)c1Cc1ccccn1`
Result: 3.48

Query: Read off the recorded logD for `Cc1cc(C)cc(Cc2c[nH]cn2)c1`
Result: 2.34

Query: Read off the recorded logD for `Cc1cccc(C)c1CCc1ncc[nH]1`
Result: 2.2

Query: Read off the recorded logD for `Cc1ccccc1Cc1c[nH]cn1`
Result: 2.13

* * *

Give measured logD for each item. Keep answers brief.
assay: from Savola, J.; Ruskoaho, H.; Salonen, J.; Puurunen, J.; Karjalainen, A.; Kurkela, K.; Karki, N. (1988). Cardiovascular and sedative alpha-adrenoceptor effects of detomidine-like arylalkylimidazoles and …; conditions: pH 7.4
Quick one: just the number, no unit, thanks!

Query: Read off the recorded logD for `Cc1cccc(C)c1CCCCc1c[nH]cn1`
Result: 3.3

Query: Read off the recorded logD for `Cc1cccc(C)c1/C=C/c1c[nH]cn1`
Result: 3.35

Query: Read off the recorded logD for `Cc1ccc(C)c(Cc2c[nH]cn2)c1`
Result: 2.54

Query: Read off the recorded logD for `Cc1cccc(Cc2c[nH]cn2)c1C`
Result: 2.5

Query: Read off the recorded logD for `Cc1cccc(C)c1CCn1ccnc1`
Result: 2.51

Query: Read off the recorded logD for `Cc1cccc(C)c1CCc1c[nH]cn1`
Result: 2.73

Query: Read off the recorded logD for `Cc1cccc(Cc2c[nH]cn2)c1`
Result: 2.21

Query: Read off the recorded logD for `Cc1ccc(Cc2c[nH]cn2)cc1C`
Result: 2.54
